Cited source for all entries: the supplement of paper PMC10567573

B1: ZNF8 (parent)
chain: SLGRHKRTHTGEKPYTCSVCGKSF

Variants of: B1
Test: protein stability index of a GFP-peptide fusion (GPS, HEK-293T) (PSI 1-6); higher = more stable;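 also: lentivirally expressed fusions sorted by FACS into six bins by GFP to DsRed ratio, PSI derived from sequencing read proportions per bin multiplied by bin number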
Settings: c terminus: a fixed tail appended

{"columns": ["variantAnnotation", "protein stability index"],
 "data": [
  ["R4D", 3],
  ["C20L", 2.45],
  ["K22E", 3.66],
  ["F24Q", 2.69],
  ["H9I", 2.84],
  ["S23M", 2.18],
  ["R7C", 4.55],
  ["T10Y", 2.18],
  ["H9A", 2.82],
  ["C17A", 3.81],
  ["K22A", 2.82],
  ["Y15V", 2.44],
  ["S23F", 2.38],
  ["K6Q", 2.95],
  ["T10K", 2.84],
  ["K6R", 2.77],
  ["R7F", 2.83],
  ["P14R", 2.63],
  ["T8H", 3.05],
  ["F24Y", 2.45],
  ["K13P", 2.71],
  ["K13M", 2.4],
  ["G11N", 2.3],
  ["H5N", 2.52],
  ["T10N", 3.44],
  ["E12C", 2.24],
  ["V19N", 3.47],
  ["G3L", 1.21],
  ["G21H", 2.78],
  ["Y15I", 2.59],
  ["K13S", 2.94],
  ["K22C", 2.54],
  ["S18C", 2.63],
  ["G11M", 2.41],
  ["K6S", 2.61],
  ["G21R", 3.03],
  ["T10Q", 3.12],
  ["C17H", 3.32],
  ["F24I", 2.92],
  ["S18I", 2.34],
  ["C20Y", 2.94],
  ["L2W", 2.93],
  ["T16Y", 2.61],
  ["P14S", 3.3],
  ["C20D", 3.99],
  ["G11V", 1.98]
]}
